Target: T1, full-length hCDCP1 with N-terminal c-Myc tag (expression vector GS01), on Ba/F3-hCDCP1 cells or … (human, UniProt Q9H5V8 30-836)
T1 construct: also called human CDCP1; hCDCP1 forced expression cells
T1 sequence: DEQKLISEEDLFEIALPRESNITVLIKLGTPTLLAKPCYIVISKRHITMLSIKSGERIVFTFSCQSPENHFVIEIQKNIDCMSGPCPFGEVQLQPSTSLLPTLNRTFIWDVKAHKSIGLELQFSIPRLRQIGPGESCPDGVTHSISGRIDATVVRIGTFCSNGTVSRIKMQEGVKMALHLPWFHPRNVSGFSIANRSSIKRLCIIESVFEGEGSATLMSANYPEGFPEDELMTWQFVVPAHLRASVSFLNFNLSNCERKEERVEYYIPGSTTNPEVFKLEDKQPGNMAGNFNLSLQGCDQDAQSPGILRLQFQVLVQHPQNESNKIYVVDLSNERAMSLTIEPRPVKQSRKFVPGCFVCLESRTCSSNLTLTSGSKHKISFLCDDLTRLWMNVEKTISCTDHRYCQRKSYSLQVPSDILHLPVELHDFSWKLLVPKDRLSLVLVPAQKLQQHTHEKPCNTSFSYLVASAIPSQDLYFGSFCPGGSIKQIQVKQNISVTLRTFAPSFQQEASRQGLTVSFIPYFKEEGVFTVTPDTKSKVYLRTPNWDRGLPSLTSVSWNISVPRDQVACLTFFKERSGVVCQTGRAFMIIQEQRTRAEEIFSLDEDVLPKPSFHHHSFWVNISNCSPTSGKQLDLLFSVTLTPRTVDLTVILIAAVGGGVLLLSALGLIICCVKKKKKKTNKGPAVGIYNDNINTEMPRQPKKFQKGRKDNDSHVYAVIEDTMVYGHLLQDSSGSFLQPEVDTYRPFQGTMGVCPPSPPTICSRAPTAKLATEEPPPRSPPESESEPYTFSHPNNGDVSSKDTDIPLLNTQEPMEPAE
Test: flow cytometry on Ba/F3-hCDCP1 cells

{"columns": ["binder", "binding result"],
 "data": [
  ["mh12A041HCv1/LCori (antibody, human IgG1, kappa, V domains shown, mouse-human chimeric antibody, human IgG1/kappa constant regions) VH: EVQLQESGPGILQPSQTLSLTCSFSGFSLSTSGMGVSWIRQPSGKGLEWLAHIYWDDDKRYNPSLKSRLTISKDTSSNQVFLKITSVDTADTATYYCARSGSYYGSSLDSWGQGTTLTVSS VL: DVLMTQTPLSLPVSLGDQASISCRSSQSIVHSNGNTYLEWYLQKPGQSPKLLIYKVSNRFSGVPDRFSGSGSGTDFTLKISRVEAEDLGVYYCFQGSHVPWTFGGGTKLEIKR", "binds"],
  ["mh14A043HCv1/LCori (antibody, human IgG1, kappa, V domains shown, mouse-human chimeric antibody, human IgG1/kappa constant regions) VH: EVQLQESGAELVRPGALVKLSCKASGFNIKDYYMNWVKQRPEQGLEWIGWIDPESGNTIYDPKFQGKASITADTSSNTAYLQLSSLTSEDTAVYYCYGSSYRFTYWGQGTLVTVSS VL: QIVLIQSPALMSASPGEKVTMTCSASSSVSYMYWYQQKPRSSPKPWIYLTSNLASGVPARFSGSGSGTSYSLTISSMEAEDAATYYCQQWSSNPFTFGSGTKLEIKR", "binds"]
]}
